Origin of values: the Human Domainome abundance scans (Beltran et al. 2025)

B1: Cold shock protein CspB, residues 1 to 66; numbered along this chain, P41016 (parent)
chain: MQRGKVKWFNNEKGYGFIEVEGGSDVFVHFTAIQGEGFKTLEEGQEVSFEIVQGNRGPQAANVVKL

# Variants of: B1
# protocol-summary: abundance fitness (aPCA) (normalised: wild type 0, dead -1); higher = more abundant; growth selection in yeast, the domain comes from the species named
# protocol-conditions: Bacillus caldolyticus
Label T for high-side abundance fitness (at or above -0.09) and F for low-side abundance fitness (below it).

[[record]]
variant_key = "G23K"
category = "T"

[[record]]
variant_key = "K13A"
category = "T"

[[record]]
variant_key = "L41Y"
category = "F"

[[record]]
variant_key = "G22V"
category = "T"

[[record]]
variant_key = "F17E"
category = "F"

[[record]]
variant_key = "Q45D"
category = "F"

[[record]]
variant_key = "N11T"
category = "T"

[[record]]
variant_key = "E19W"
category = "T"

[[record]]
variant_key = "K7S"
category = "T"

[[record]]
variant_key = "F30P"
category = "F"

[[record]]
variant_key = "N10Y"
category = "F"

[[record]]
variant_key = "E12K"
category = "T"

[[record]]
variant_key = "R3K"
category = "T"

[[record]]
variant_key = "N10T"
category = "F"

[[record]]
variant_key = "A32D"
category = "F"

[[record]]
variant_key = "R3M"
category = "T"

[[record]]
variant_key = "T40R"
category = "T"

[[record]]
variant_key = "K13N"
category = "F"

[[record]]
variant_key = "K5V"
category = "T"

[[record]]
variant_key = "S24A"
category = "T"

